These data points were gathered from the supplement of paper PMC3334620.

testedOn: Hap1 (UniProt P0CE41)
Sequence (P0CE41 whole entry): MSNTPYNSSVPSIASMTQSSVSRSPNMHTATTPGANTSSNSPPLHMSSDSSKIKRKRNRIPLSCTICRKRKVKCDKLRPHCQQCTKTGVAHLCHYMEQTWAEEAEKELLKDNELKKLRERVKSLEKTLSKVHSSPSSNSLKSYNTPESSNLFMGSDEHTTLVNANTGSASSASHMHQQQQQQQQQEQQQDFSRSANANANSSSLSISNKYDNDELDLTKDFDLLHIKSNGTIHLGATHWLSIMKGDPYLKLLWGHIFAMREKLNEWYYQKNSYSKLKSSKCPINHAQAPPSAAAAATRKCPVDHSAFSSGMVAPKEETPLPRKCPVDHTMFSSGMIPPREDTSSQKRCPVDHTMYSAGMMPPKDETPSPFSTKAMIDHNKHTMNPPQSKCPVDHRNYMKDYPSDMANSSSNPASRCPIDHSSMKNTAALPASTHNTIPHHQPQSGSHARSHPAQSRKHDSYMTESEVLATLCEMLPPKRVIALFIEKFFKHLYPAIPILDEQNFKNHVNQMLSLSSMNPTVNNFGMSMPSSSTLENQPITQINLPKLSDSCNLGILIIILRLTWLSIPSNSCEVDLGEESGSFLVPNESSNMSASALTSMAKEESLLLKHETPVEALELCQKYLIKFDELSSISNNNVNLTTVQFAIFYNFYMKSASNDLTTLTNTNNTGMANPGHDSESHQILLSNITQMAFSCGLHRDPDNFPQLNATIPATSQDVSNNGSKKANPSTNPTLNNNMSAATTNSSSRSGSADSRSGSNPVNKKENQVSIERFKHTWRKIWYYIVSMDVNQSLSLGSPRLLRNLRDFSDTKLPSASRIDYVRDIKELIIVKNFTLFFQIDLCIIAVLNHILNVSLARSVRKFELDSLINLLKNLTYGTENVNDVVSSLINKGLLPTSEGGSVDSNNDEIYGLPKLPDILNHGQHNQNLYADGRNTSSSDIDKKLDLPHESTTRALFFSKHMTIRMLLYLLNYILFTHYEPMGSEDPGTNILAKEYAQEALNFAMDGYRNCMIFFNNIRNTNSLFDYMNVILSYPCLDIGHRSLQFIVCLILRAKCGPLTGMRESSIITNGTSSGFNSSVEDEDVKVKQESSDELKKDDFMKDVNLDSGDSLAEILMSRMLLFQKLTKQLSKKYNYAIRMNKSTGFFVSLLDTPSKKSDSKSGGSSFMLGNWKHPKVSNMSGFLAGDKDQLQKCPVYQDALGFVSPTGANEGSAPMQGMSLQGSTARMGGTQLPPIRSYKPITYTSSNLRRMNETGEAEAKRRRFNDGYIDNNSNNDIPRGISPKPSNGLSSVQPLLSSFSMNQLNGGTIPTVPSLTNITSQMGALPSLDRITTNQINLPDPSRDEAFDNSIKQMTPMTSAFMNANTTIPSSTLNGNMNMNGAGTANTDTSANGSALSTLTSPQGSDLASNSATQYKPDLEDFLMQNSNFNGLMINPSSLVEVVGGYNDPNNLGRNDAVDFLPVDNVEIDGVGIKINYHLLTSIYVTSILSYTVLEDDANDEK
protocolText: PBM E-score (8-mer binding enrichment) (E-score (-0.5 to 0.5)); higher = stronger / more preferred TF binding
assayConditions: protein concentration: 200 nM; construct: GST-DNA-binding domain
Whole data set: some 33,000 sequences, median “E-score (-0.5 to 0.5)” near -0.053, cut for the highest 2% near 0.37. Only a selection was taken, and the highest values are over-represented in it overall.
Tick condition met if PBM E-score is 0.2 or greater. Tick condition not met if PBM E-score is less than 0.2.

Observe how each entry below is paired with its result.
residueString	classLabel
AATTGTGG	condition not met
CGTCCGAA	condition met
ATTATCGA	condition not met
AACGGGGG	condition not met
GCTCCGAC	condition met

Kindly determine if PBM E-score recorded for `GGTCCGAC` is above or exactly 0.2. condition met

Further, for `CTAAATCA` ? condition not met

// query: `TCCGGCGA` condition met

Proceed to `CCAAATTC` condition not met

Now give it for `ATGACCGG` too. condition met

Then what about the sequence `ATGACCGA` ? condition met

How about `ACTCGGAA` ? condition met

Try `ATTACCGA` next. condition met

Could you do the same for `GGTCCAAC` , please? condition not met

And the next one, `GCCGATAA` ? condition met

Subsequent entry: `CGCCCGAG` condition met

Queued: `CCTCGGGC` condition met

Continue with `ACCGATCT` condition met

// next record `ACCGGCGA` condition met

And the next one, `ATTACCGC` ? condition met

Follow-up entry: `ATCGGCGA` condition met

Note, next up: `AAAATCCG` condition met

Further, for `CAGCGCGC` ? condition not met

`TCTCCCAA` , same question. condition not met

Subsequent entry: `AGCGCATG` condition not met

// query: `ATTATCGG` condition met
